# target-of-assay: C5aR (Homo sapiens (Human))
# Sequence (P21730 whole entry): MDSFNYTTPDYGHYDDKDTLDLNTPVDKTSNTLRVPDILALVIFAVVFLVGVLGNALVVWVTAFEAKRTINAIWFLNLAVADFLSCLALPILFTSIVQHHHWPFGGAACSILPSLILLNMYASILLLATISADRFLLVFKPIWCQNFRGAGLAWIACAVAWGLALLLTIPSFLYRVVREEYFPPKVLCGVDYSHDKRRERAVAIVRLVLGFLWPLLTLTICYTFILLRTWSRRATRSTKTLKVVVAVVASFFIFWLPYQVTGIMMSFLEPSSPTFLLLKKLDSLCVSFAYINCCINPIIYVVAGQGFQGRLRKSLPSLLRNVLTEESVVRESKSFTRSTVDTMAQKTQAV
# protocol-text: Chemotaxis assay using U937 cells (C5aR mediated migration)
# assay-setup: read-out: Mig IC50
quantity-measured: IC50

compound=Cc1cccc(OC(C)C)c1-n1nc2c(c1-c1ccc(NC(N)=O)cc1)CN(c1ccccc1C(C)C)CC2 test_value="≤ 5 nM"
compound=Cc1cccc(F)c1-n1nc2c(c1-c1ccc(NC(N)=O)cc1)CN(c1ccccc1C(C)C)CC2 test_value="50 to 500 nM"
compound=CCc1cccc(CC)c1-n1nc2c(c1-c1cc(F)c(NC(N)=O)cc1F)CN(C(C)(C)c1ccc(F)cc1)CC2 test_value="≤ 5 nM"
compound=Cc1cccc(OCC(C)C)c1-n1nc2c(c1-c1ccc(C(N)=O)cc1)CN(c1ccccc1C(C)(C)C)CC2 test_value="5 to 50 nM"
compound=Cc1cccc(C)c1-n1nc2c(c1-c1ccc(C(N)=O)c(F)c1)CN(c1ncc(Cl)cc1Cl)CC2 test_value="> 500 nM"
compound=Cc1cccc(OCC(C)C)c1-n1nc2c(c1-c1ccc(NC(N)=O)c(F)c1)CN(Cc1ccc(C(F)(F)F)cc1C(F)(F)F)CC2 test_value="≤ 5 nM"
compound=Cc1cccc(C)c1-n1nc2c(c1-c1ccc(NC(N)=O)cc1)CN(c1ccccc1C(C)C)CC2 test_value="50 to 500 nM"
compound=COc1cccc(C)c1-n1nc2c(c1-c1ccc(NC(N)=O)nc1)CN(c1ccccc1C(C)C)CC2 test_value="50 to 500 nM"

Exercise: If you can, please state the reported IC50 value of `Cc1cccc(OCC(C)C)c1-n1nc2c(c1-c1ccc(NC(N)=O)cc1)CN(Cc1ccc(C(F)(F)F)cc1)CC2` .
Solution: ≤ 5 nM

Exercise: So what's the measured IC50 for this one? `Cc1cccc(C)c1-n1nc2c(c1-c1cc(F)c(NC(N)=O)cc1F)CN(c1ncc(C(C)(C)O)cc1Cl)CC2`
Solution: 50 to 500 nM

Exercise: Which value of IC50 has been reported for `COc1cccc(C)c1-n1nc2c(c1-c1ccc(N)cc1)CN(c1ccccc1C(C)(C)C)CC2` in the records?
Solution: 5 to 50 nM

Exercise: For the compound `Cc1ccc(CN2CCc3nn(-c4c(C)cccc4OCC(C)C)c(-c4ccc(NC(N)=O)cc4)c3C2)c(Cl)c1` , what IC50 is on record?
Solution: ≤ 5 nM

Exercise: Any idea what its IC50 is? The compound is Cc1cccc(OCC(C)C)c1-n1nc2c(c1-c1ccc(NC(N)=O)cc1)CN(CC(C)C(F)(F)F)CC2 (stereo not shown)
Solution: 5 to 50 nM

Exercise: Which IC50 reading was recorded for the compound `CC(C)(c1ccccc1)N1CCc2nn(-c3ccccc3OC(F)(F)F)c(-c3cc(F)c(NC(N)=O)cc3F)c2C1` ?
Solution: ≤ 5 nM

Exercise: # get_value(readout='IC50', item= `COc1ccc(-c2c3c(nn2-c2c(C)cccc2C)CCN(c2cc(C(C)(C)C)ccc2C)C3)cc1` )
Solution: 50 to 500 nM

----------
# target-of-assay: C5aR (Homo sapiens (Human))
# protocol-text: Chemotaxis assay using U937 cells (C5aR mediated migration)
# assay-setup: read-out: Mig IC50
# Method: U937 cells are a monocytic cell line which express C5aR, and are available from ATCC (VA). […] Optionally, compounds may be further assayed for their ability to inhibit chemotaxis in cells. […] The chambers are incubated 1.5 hours at 37° C., and the number of cells in the lower chamber quantified either by direct cell counts in five high powered fields per well or by the CyQuant assay (Molecular Probes), a fluorescent dye method that measures nucleic acid content and microscopic observation. […]
pIC50: −log10 of the molar value.
The entries below are paired with their reported pIC50.

Reference set, count: 6
compound=Cc1cccc(OCC(C)C)c1-n1nc2c(c1-c1ccc(NC(N)=O)cc1)CN(c1ccc(F)cc1C(C)C)CC2 test_value="7.30 to 8.30"
compound=Cc1cc(NC(N)=O)c(F)cc1-c1c2c(nn1-c1c(C)cccc1C)CCN(c1ccc(Cl)cc1Cl)C2 test_value="≥ 8.30"
compound=Cc1cccc(OCC(C)C)c1-n1nc2c(c1-c1ccc(NC(N)=O)cc1)CN(C(=O)C1CCC1)CC2 test_value="6.30 to 7.30"
compound=Cc1cccc(OCC(C)C)c1-n1nc2c(c1-c1ccc(NC(N)=O)cc1)CN(C(=O)OC(C)(C)C)CC2 test_value="7.30 to 8.30"
compound=CC[C@@H](c1ccccc1)N1CCc2nn(-c3c(C)cccc3C)c(-c3cc(F)c(NC(N)=O)cc3F)c2C1 test_value="≥ 8.30"
compound=Cc1cccc(OCC(C)C)c1-n1nc2c(c1-c1ccc(NC(N)=O)cc1)CN(Cc1cc(Cl)ccc1F)CC2 test_value="≥ 8.30"

The record that follows has no pIC50 shown yet.
Exercise: Look up pIC50: CCc1cccc(CC)c1-n1nc2c(c1-c1ccc(NC(N)=O)cc1)CN(C(c1ccccc1C(F)(F)F)C(C)C)CC2 (stereo not shown)
Solution: ≥ 8.30

Reference source: patent US11478460B2
